switch fluorescence ratio overview
System: ATP;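 note: ATP exposure 15 min at 22 °C before imaging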
Assay: switch fluorescence ratio, 500 uM ATP over buffer (Cy3 cluster intensity, sum of 5 cycles each) (fold (ratio)); higher = stronger signal-on switching upon ATP binding; sequences stand for … in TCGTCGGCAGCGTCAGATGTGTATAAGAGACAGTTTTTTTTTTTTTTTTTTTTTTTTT…TC
Settings: aptamer strand: ATP DNA aptamer (quencher-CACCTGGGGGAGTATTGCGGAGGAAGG + anchor), 100 nM annealed; ATP concentration: 500 uM
No unit in the answer, please; the number alone is enough.

Consider the reported switch fluorescence ratio for these sequences:
TCTCAAGGCG    1.03
AAGCAACAGT    1.09
TGAAGCATCC    1.82
AGAAAGGGTG    1.14
CGTTCCATTG    1

Notebook: AAGTGCGATC , switch fluorescence ratio read as 1.04

Measured switch fluorescence ratio, ATGACGTATT : 1.02

response.value for CGATTGGGTC (field: switch fluorescence ratio) = 0.999

get_value(item= AAGGTATGC , readout=switch fluorescence ratio) returns 1.01

Item: TACATGTCGG | switch fluorescence ratio: 1.01

sequence GGGGGCAATT , switch fluorescence ratio observed: 0.987

For this sequence ( TGGAAATAAG ), measured switch fluorescence ratio is 1.03

Just so you know, measured switch fluorescence ratio for TGATTTGGAC came out at 1.01

Lab note: measured switch fluorescence ratio of AAGGCTGTAA was 0.978

Documented switch fluorescence ratio of GAATTAGGTG : 1.21

The recorded switch fluorescence ratio for CAAAGTGAAC is 1.01

Looking up ACCTAGCTCC , I found its switch fluorescence ratio recorded as 1.71

// field: switch fluorescence ratio; key: TTGTGATTTT ; value = 1.02

====

Test system: ATP;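 note: ATP exposure 15 min at 22 °C before imaging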
Assay: switch fluorescence ratio, 500 uM ATP over buffer (Cy3 cluster intensity, sum of 5 cycles each) (fold (ratio)); higher = stronger signal-on switching upon ATP binding; sequences stand for … in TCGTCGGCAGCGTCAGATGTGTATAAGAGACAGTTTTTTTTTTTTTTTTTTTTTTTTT…TC
Conditions: aptamer strand: ATP DNA aptamer (quencher-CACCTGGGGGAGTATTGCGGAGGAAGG + anchor), 100 nM annealed; ATP concentration: 500 uM
Each item that follows carries a reported switch fluorescence ratio.
Could you respond with only the numeric value?

CAGGTGTATG    1.27
GGGGCTGAGG    0.936
GCGCTCATAG    1.15
CTTAAAAATT    0.978
TTAGGAAGAC    2.27

Entry AGGTAGGTTT — recorded switch fluorescence ratio = 0.99

sequence CCAAGTAGGC , switch fluorescence ratio observed: 1.13

switch fluorescence ratio in this record for CATGGGTTCG : 1

====

Test system: ATP;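 note: ATP exposure 15 min at 22 °C before imaging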
Assay: switch fluorescence ratio, 500 uM ATP over buffer (Cy3 cluster intensity, sum of 5 cycles each) (fold (ratio)); higher = stronger signal-on switching upon ATP binding; sequences stand for … in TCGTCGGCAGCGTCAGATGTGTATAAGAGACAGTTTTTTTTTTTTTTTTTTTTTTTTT…TC
Details: aptamer strand: ATP DNA aptamer (quencher-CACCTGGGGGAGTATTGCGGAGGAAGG + anchor), 100 nM annealed; ATP concentration: 500 uM
test.readout: switch fluorescence ratio
Reply with the value as a number alone.

// worked examples, switch fluorescence ratio included
GGGGGGGCAT    1.02
TAGGTGAGGG    1.11
TCGAGGGGTA    1
CTGTCCTAGG    1.04
CATTGGACCT    1.29

According to the records, this sequence TAGGAAGGTT displays switch fluorescence ratio of 0.988

Measured switch fluorescence ratio of CGCGACAACA : 0.999

Recorded switch fluorescence ratio (sequence GGGGGATTTT ): 0.999

The reported value for GAGGGGGGGG in terms of switch fluorescence ratio is 1.01

Lab note: measured switch fluorescence ratio of GATACGAACG was 1.32

====

Overview of reported switch fluorescence ratio across a group of sequences:
Tested on: ATP;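 note: ATP exposure 15 min at 22 °C before imaging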
Assay: switch fluorescence ratio, 500 uM ATP over buffer (Cy3 cluster intensity, sum of 5 cycles each) (fold (ratio)); higher = stronger signal-on switching upon ATP binding; sequences stand for … in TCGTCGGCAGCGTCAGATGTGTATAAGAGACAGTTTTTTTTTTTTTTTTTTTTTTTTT…TC
Conditions: aptamer strand: ATP DNA aptamer (quencher-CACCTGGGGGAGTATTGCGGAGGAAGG + anchor), 100 nM annealed; ATP concentration: 500 uM
Respond numerically, and do not add a unit to the figure.

GATAAGTCGG    1.01
GTTGTTGGGT    0.983
CAACCGAGGC    1.18
TTTGATATTA    0.994
TGGGGGTGAC    1.04

I looked up ACGGGTTCCT and its switch fluorescence ratio for ATP was 1

Simply: TTTTGGGGGT , ATP, switch fluorescence ratio = 1.03

====

Tested on: ATP;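 note: ATP exposure 15 min at 22 °C before imaging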
Experiment: switch fluorescence ratio, 500 uM ATP over buffer (Cy3 cluster intensity, sum of 5 cycles each) (fold (ratio)); higher = stronger signal-on switching upon ATP binding; sequences stand for … in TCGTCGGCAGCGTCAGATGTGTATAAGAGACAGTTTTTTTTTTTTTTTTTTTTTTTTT…TC
Conditions: aptamer strand: ATP DNA aptamer (quencher-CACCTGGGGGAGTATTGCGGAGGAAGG + anchor), 100 nM annealed; ATP concentration: 500 uM
test.readout: switch fluorescence ratio
Response field accepts a number only; no unit should be typed.

AAAATGAGTG    0.985
TCAAACGCGT    1.01
TGGGGGGGGC    1.01
TGGATAGTGT    0.998
GGTAAAAGAT    0.977

Per the record, TTTCGGGAAT has switch fluorescence ratio of 1.08

Entry CCATTTATTT — recorded switch fluorescence ratio = 1.02

Item: CGGGCCACGT | switch fluorescence ratio: 0.997

Form: sequence = ATGGGGTGTT ; switch fluorescence ratio = 1

The sequence listed as AATAATGTTG has a reported switch fluorescence ratio of 0.998

====

Test system: ATP;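 note: ATP exposure 15 min at 22 °C before imaging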
Assay: switch fluorescence ratio, 500 uM ATP over buffer (Cy3 cluster intensity, sum of 5 cycles each) (fold (ratio)); higher = stronger signal-on switching upon ATP binding; sequences stand for … in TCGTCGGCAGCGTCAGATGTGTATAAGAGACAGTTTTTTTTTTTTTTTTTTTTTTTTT…TC
Conditions: aptamer strand: ATP DNA aptamer (quencher-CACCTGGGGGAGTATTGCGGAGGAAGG + anchor), 100 nM annealed; ATP concentration: 500 uM
Entries and their switch fluorescence ratio values follow.
Lab note: jot the number down without any unit.

TTTTAGTAGC    1.04

So the reported switch fluorescence ratio for GGGATAATGA , on ATP, turned out to be 0.977

Per the reported ATP data, TTAATTTGCA has switch fluorescence ratio of 1.01

Noted switch fluorescence ratio for ACCTGGCACA , tested on ATP: 1.09

Case AATAATTGTG , ATP, switch fluorescence ratio recorded as 1.02

Bench note, ATP: entry GAATATATTT , its switch fluorescence ratio = 0.993

Known value: ATP switch fluorescence ratio of the sequence TTTTCAGTTT equals 1.02

Form field, switch fluorescence ratio with ATP, item TAATGACGCT : 0.997

Readout switch fluorescence ratio for CCATTTTGCG , test system ATP, was 1

// assay ATP, entry CGTCCGGCGC , switch fluorescence ratio value = 1.35

====

Test system: ATP;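 note: ATP exposure 15 min at 22 °C before imaging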
Assay: switch fluorescence ratio, 500 uM ATP over buffer (Cy3 cluster intensity, sum of 5 cycles each) (fold (ratio)); higher = stronger signal-on switching upon ATP binding; sequences stand for … in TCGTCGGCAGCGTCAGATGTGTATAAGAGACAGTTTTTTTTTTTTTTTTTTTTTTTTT…TC
Conditions: aptamer strand: ATP DNA aptamer (quencher-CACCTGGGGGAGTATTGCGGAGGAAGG + anchor), 100 nM annealed; ATP concentration: 500 uM
test.readout: switch fluorescence ratio
Please give the numeric answer without any surrounding text.

TCAAACTGTT    1.08
GCATGCGGCT    1.03

// below: switch fluorescence ratio requested for another sequence
Lab book: switch fluorescence ratio of TTACCGGGAT noted as 1.02

====

System: ATP;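 note: ATP exposure 15 min at 22 °C before imaging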
Test: switch fluorescence ratio, 500 uM ATP over buffer (Cy3 cluster intensity, sum of 5 cycles each) (fold (ratio)); higher = stronger signal-on switching upon ATP binding; sequences stand for … in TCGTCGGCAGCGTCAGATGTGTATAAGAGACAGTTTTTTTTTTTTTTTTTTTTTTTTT…TC
Conditions: aptamer strand: ATP DNA aptamer (quencher-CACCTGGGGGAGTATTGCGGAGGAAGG + anchor), 100 nM annealed; ATP concentration: 500 uM
Recorded switch fluorescence ratio, one value per entry.
Write no unit; give the number alone.

TTATGTGCGA    1.02
AGGGGAGACC    0.977
TCAAAACTTG    1.01

Reported switch fluorescence ratio ( CTGCGGGGAT ) = 1.02

Per the records, this sequence ( GGGGGCATCG ) has switch fluorescence ratio equal to 1.01

switch fluorescence ratio reading for CTAGGTAGGG : 0.997
